assay_comment: self-splicing fitness, log relative to wild type (ln ratio); higher = more splicing; Tetrahymena group I intron in knt gene, E. coli kanamycin selection, DiMSum; sequences stand for … in CUCUCU…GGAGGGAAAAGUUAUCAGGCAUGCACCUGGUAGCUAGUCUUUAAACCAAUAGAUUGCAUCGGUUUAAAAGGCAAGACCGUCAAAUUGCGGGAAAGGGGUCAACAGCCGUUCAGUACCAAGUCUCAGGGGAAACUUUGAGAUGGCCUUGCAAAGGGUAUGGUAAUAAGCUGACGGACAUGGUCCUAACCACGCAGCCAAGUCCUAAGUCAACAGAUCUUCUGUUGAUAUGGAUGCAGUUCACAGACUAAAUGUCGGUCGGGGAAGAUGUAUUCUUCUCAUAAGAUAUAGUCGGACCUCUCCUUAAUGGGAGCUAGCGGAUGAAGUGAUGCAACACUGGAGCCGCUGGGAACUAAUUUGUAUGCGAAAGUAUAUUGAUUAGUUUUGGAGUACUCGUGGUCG;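 also: selection with 25 µg/mL kanamycin versus none on LB agar overnight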
stated_conditions: 30 °C
readout_kind: self-splicing fitness (ln)

construct_sequence: UCCUAGCAAUAUUACGCUUA
value_observed: -2.77
--
construct_sequence: GUCUAGCAAUAUUACGCACU
value_observed: -0.628
--
construct_sequence: AUGAAGCAAUAUUACGGGAG
value_observed: -1.71
--
construct_sequence: CAUUAGCAAUAUUACGCAAG
value_observed: -1.45
--
construct_sequence: GAUCAGCAAUAUUACGAAGG
value_observed: -2.62
--
construct_sequence: CGUUAGCAAUAUUACGCUUA
value_observed: -3.67
--
construct_sequence: UGUGAGCAAUAUUACGACAA
value_observed: -1.97
--
construct_sequence: GGACAGCAAUAUUACGUGCA
value_observed: -0.37
--
construct_sequence: CCCGAGCAAUAUUACGGAGC
value_observed: -1.75
--
construct_sequence: CUCCAGCAAUAUUACGUGGA
value_observed: -3.5
--
construct_sequence: CACCAGCAAUAUUACGAAAU
value_observed: -4.11
--
construct_sequence: CAAUAGCAAUAUUACGUUGG
value_observed: -1.9
--
construct_sequence: CGAAAGCAAUAUUACGCGCA
value_observed: -0.957
--
construct_sequence: GAUUAGCAAUAUUACGGUUG
value_observed: -1.43
--
construct_sequence: UAUAAGCAAUAUUACGGUUU
value_observed: -2.58
--
construct_sequence: UUCCAGCAAUAUUACGUUAG
value_observed: -2.57
--
construct_sequence: UCCGAGCAAUAUUACGCAAG
value_observed: -3.27
--
construct_sequence: UUACAGCAAUAUUACGGACC
value_observed: -3.25
--
construct_sequence: GUAGAGCAAUAUUACGGGUA
value_observed: -4.17
--
construct_sequence: GAGUAGCAAUAUUACGAAUC
value_observed: -2.47
--
construct_sequence: ACGAAGCAAUAUUACGUCAA
value_observed: -3.35
--
construct_sequence: CCCCAGCAAUAUUACGAUCU
value_observed: -3.24
--
construct_sequence: CCAAAGCAAUAUUACGAUCU
value_observed: -2.43
--
construct_sequence: AGAAAGCAAUAUUACGGAAA
value_observed: -1.63
--
construct_sequence: ACGAAGCAAUAUUACGAGCG
value_observed: -0.87
--
construct_sequence: GGCCAGCAAUAUUACGCUAU
value_observed: -1.35
--
construct_sequence: UAAAAGCAAUAUUACGCGGA
value_observed: -1.8
--
construct_sequence: GGCUAGCAAUAUUACGAUUA
value_observed: -0.803
--
construct_sequence: GGAAAGCAAUAUUACGGACA
value_observed: -0.913
--
construct_sequence: AAGUAGCAAUAUUACGCAGG
value_observed: -3.61
--
construct_sequence: AGACAGCAAUAUUACGAUCU
value_observed: -2.62
--
construct_sequence: CGUCAGCAAUAUUACGUCGC
value_observed: -3.45
--
construct_sequence: GGCCAGCAAUAUUACGGAGC
value_observed: -2.25
--
construct_sequence: CGGUAGCAAUAUUACGCGAA
value_observed: -2.83
--
construct_sequence: AAUUAGCAAUAUUACGUAUU
value_observed: -2.32
--
construct_sequence: AUACAGCAAUAUUACGUGAG
value_observed: -1.51
--
construct_sequence: CUAGAGCAAUAUUACGGCGG
value_observed: -0.275
--
construct_sequence: UGUUAGCAAUAUUACGUUAG
value_observed: -0.971
--
construct_sequence: GGGCAGCAAUAUUACGAGAG
value_observed: -4.06
--
construct_sequence: AGAAAGCAAUAUUACGCUUC
value_observed: -1.58
--
construct_sequence: GAUCAGCAAUAUUACGGGGG
value_observed: -3.25
--
construct_sequence: CGGGAGCAAUAUUACGGAUU
value_observed: -3.51
--
construct_sequence: UUACAGCAAUAUUACGACGA
value_observed: -0.196
--
construct_sequence: AACCAGCAAUAUUACGGCGC
value_observed: -0.046
--
construct_sequence: AGUGAGCAAUAUUACGGUCU
value_observed: -0.639
--
construct_sequence: CUCUAGCAAUAUUACGCGAA
value_observed: -2.68
--
construct_sequence: CGACAGCAAUAUUACGGUCU
value_observed: -0.546
--
construct_sequence: CGGUAGCAAUAUUACGUGUG
value_observed: -0.17
--
construct_sequence: ACCUAGCAAUAUUACGCGUC
value_observed: -2.91
--
construct_sequence: UCCAAGCAAUAUUACGACGU
value_observed: -0.266
--
construct_sequence: CCAGAGCAAUAUUACGUAGG
value_observed: -3.25
--
construct_sequence: GUCAAGCAAUAUUACGCGGA
value_observed: -2.98
--
construct_sequence: GAGAAGCAAUAUUACGUAAU
value_observed: -1.88
--
construct_sequence: GCGAAGCAAUAUUACGUCGA
value_observed: -2.01
--
construct_sequence: GCGUAGCAAUAUUACGUACA
value_observed: -1.1
--
construct_sequence: UCUAAGCAAUAUUACGUACA
value_observed: -1.57
--
construct_sequence: GACUAGCAAUAUUACGGCUU
value_observed: -0.318
--
construct_sequence: GACAAGCAAUAUUACGCUCA
value_observed: -0.336
--
construct_sequence: CUGGAGCAAUAUUACGUGGC
value_observed: -2.22
--
construct_sequence: CGCAAGCAAUAUUACGGUCA
value_observed: -0.699
--
construct_sequence: AUGCAGCAAUAUUACGGCCA
value_observed: -0.753
--
construct_sequence: CAAUAGCAAUAUUACGCAAA
value_observed: -3.95
--
construct_sequence: ACUCAGCAAUAUUACGCGCA
value_observed: -0.615
--
construct_sequence: CAUAAGCAAUAUUACGGGUC
value_observed: -3.31
--
construct_sequence: GCUGAGCAAUAUUACGGGGC
value_observed: -3.02
--
construct_sequence: UACUAGCAAUAUUACGAGUU
value_observed: -2.16
--
construct_sequence: AACUAGCAAUAUUACGUAGU
value_observed: -2.24

====

assay_comment: self-splicing fitness, log relative to wild type (ln ratio); higher = more splicing; Tetrahymena group I intron in knt gene, E. coli kanamycin selection, DiMSum; sequences stand for … in CUCUCU…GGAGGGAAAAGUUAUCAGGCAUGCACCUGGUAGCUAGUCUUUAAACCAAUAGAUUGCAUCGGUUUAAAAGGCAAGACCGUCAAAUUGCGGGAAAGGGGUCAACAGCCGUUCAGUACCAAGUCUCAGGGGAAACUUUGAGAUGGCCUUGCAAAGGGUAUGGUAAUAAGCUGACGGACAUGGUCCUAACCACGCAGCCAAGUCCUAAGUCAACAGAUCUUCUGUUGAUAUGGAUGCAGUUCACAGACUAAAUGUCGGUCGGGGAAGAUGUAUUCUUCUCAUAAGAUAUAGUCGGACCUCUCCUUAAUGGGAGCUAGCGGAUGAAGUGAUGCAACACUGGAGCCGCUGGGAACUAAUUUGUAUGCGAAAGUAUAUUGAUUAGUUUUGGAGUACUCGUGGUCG
stated_conditions: 30 °C
Cut-off -3 on self-splicing fitness (ln), inclusive. At or above means 1; below means -1.

construct_sequence: CUACAGCAAUAUUACGUCUA
class_name: -1
//
construct_sequence: AGCGAGCAAUAUUACGGUUA
class_name: 1
//
construct_sequence: AGACAGCAAUAUUACGGCCG
class_name: 1
//
construct_sequence: UCUGAGCAAUAUUACGCAAA
class_name: 1
//
construct_sequence: AUUGAGCAAUAUUACGGACC
class_name: -1
//
construct_sequence: AGGUAGCAAUAUUACGUGAA
class_name: 1
//
construct_sequence: GCUUAGCAAUAUUACGUGAA
class_name: 1
//
construct_sequence: AAAAAGCAAUAUUACGUGCU
class_name: 1
//
construct_sequence: CAACAGCAAUAUUACGUAAC
class_name: -1
//
construct_sequence: AUAUAGCAAUAUUACGGUAA
class_name: 1
//
construct_sequence: UCAGAGCAAUAUUACGGUAG
class_name: -1
//
construct_sequence: CUACAGCAAUAUUACGGCAG
class_name: 1
//
construct_sequence: AUCCAGCAAUAUUACGGUCC
class_name: 1
//
construct_sequence: GGGCAGCAAUAUUACGAUUG
class_name: -1
//
construct_sequence: GAGAAGCAAUAUUACGAUGG
class_name: 1
//
construct_sequence: GUGAAGCAAUAUUACGCGGA
class_name: 1
